Biological target: b-Raf (V600E) (Homo sapiens (Human), UniProt P15056, V600E)
Sequence (P15056 whole entry V600E): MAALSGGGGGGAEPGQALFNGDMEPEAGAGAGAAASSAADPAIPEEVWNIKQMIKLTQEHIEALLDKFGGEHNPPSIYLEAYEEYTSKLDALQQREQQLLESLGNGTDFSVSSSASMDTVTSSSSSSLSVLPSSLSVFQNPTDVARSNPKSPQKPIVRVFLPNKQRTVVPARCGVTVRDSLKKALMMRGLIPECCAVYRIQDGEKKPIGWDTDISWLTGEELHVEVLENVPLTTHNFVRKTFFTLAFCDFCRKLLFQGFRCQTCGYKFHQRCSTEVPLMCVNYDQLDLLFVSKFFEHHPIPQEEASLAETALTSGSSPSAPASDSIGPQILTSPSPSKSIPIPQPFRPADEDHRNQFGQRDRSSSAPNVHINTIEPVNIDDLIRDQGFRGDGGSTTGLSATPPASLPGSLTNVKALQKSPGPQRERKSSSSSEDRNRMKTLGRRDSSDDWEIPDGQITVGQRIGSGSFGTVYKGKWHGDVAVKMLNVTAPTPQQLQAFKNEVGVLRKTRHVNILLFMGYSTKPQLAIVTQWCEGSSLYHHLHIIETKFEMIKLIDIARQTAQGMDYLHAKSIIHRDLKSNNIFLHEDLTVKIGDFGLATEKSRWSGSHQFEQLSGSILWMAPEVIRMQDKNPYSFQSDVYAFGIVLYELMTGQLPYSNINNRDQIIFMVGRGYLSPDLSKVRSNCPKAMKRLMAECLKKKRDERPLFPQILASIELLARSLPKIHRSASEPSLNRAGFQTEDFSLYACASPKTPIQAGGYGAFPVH
Conditions: read-out: b-Raf IC-50
RECORDED ENDPOINT: pIC50
pIC50 field: float, defined as -log10 of concentration (mol/L).

Consider the reported pIC50 for these compounds:
# QUERY SMILES, pIC50
measured = [
    ("Cc1ccc(NC(=O)c2cc(CN(C)C)cc(C(F)(F)F)c2)cc1-c1cc(N2CCOCC2)c(=O)n(C)c1", 8.04),
    ("CCOc1nnc(-c2cc(NC(=O)c3ccc(CNC)c(C(F)(F)F)c3)ccc2C)cc1N1CCOCC1", 8.66),
    ("CCOc1ncc(-c2cc(NC(=O)c3cnnc(C(F)(F)F)c3)cnc2C)cc1N1C2CCC1COC2", 7.28),
    ("Cc1ccc(NC(=O)c2cccc(C(F)(F)F)c2)cc1-c1cc(N2CCOCC2)nc(N2CCOCC2)n1", 9.52),
]

The record that follows has no pIC50 shown yet.
stdin: Provide value of pIC50 for this record tested with b-Raf (V600E) (Homo sapiens (Human), UniProt P15056, V600E): `COc1cc(-c2cc(NC(=O)c3cccc(C(F)(F)F)c3)ccc2C)nc(N2CCOCC2)c1`
stdout: 8.82
